- measured.on: Corticotropin-releasing factor receptor 2 (Sus scrofa)
- experiment.notes: Inhibition of [125I]- sauvagine binding to corticotropin releasing factor receptor 2 of porcine choroid plexus
pIC50: −log10 of the molar value.
property.name: pIC50

Problem: Can you look up the measured pIC50 of CCc1nc2c(n1C(C1CC1)C1CC1)C(=O)N(C)CN2c1ccc(Cl)cc1Cl for me?
Result: < 5.00
